B1: TMEM106C (parent)
chain: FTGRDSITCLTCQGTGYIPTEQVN

variants of: B1; assay: protein stability index of a GFP-peptide fusion (GPS, HEK-293T) (PSI 1-6); higher = more stable; conditions: c terminus: a fixed tail appended;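 note: lentivirally expressed fusions sorted by FACS into six bins by GFP to DsRed ratio, PSI derived from sequencing read proportions per bin multiplied by bin number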
The threshold is inclusive: protein stability index of exactly 2 counts as Satisfied; values below receive Not satisfied.

INSERT INTO assay_data (var, cat) VALUES
  ('L10F', 'Satisfied'),
  ('I7W', 'Satisfied'),
  ('L10M', 'Not satisfied'),
  ('I18G', 'Not satisfied'),
  ('E21W', 'Not satisfied'),
  ('I18L', 'Satisfied'),
  ('S6L', 'Satisfied'),
  ('Y17R', 'Satisfied');

# input Could you tell me if the measured protein stability index of Q13M reaches 2 or more?
# output Not satisfied

# input Could you tell me if the measured protein stability index of I7N reaches 2 or more?
# output Satisfied

# input Could you tell me if the measured protein stability index of T15C reaches 2 or more?
# output Satisfied

# input Could you tell me if the measured protein stability index of G3Q reaches 2 or more?
# output Satisfied
